Where these numbers come from: patent US8598145B2

Measured pIC50 accompanies every entry in the list below.
test system: MCF-7; test: MTT viability assay (IC50); type: cell-based, human; details: MCF-7, ~60% confluency
pIC50: −log10 of the molar value.
measured_quantity: pIC50

molecule	quantitative_result
Cc1c(C)c2c(c(C)c1OC(=O)CCC(=O)[O-])CCC(C)(CCCCCCCCCCC[P+](c1ccccc1)(c1ccccc1)c1ccccc1)O2 (stereo not drawn) [MitoVE11S]	5.72
Cc1c(C)c2c(c(C)c1OC(=O)CCC(=O)O)CC[C@@](C)(CCC[C@H](C)CCC[C@H](C)CCCC(C)C)O2 [α-TOS, α-tocopheryl succinate, reference compound]	4.66
Cc1c(C)c2c(c(C)c1OC(=O)CCC(=O)OCCCC[P+](c1ccccc1)(c1ccccc1)c1ccccc1)CCC(C)(CCCC(C)CCCC(C)CCCC(C)C)O2 (stereo not drawn)	4.72

----------
Tested on: HL-1
Assay: MTT viability assay (IC50)
Assay type: cell-based, rat
Settings: HL-1, ~60% confluency
Method: […] Toxicity of α-TOS, VE11S (“VES”), MitoVE3S, MitoVE5S, MitoVE7S, MitoVE9S, MitoVE11S (“MitoVES”), MitoVE11AE (“MitoVEAE”), MitoVE11F (“MitoVEF”), MitoVE11M (“MitoVEM”), and VES4TPP towards cancer cells was assessed on the basis of IC50, as detailed in Turanek, J., et al. ((2008). Liposomal formulation of vitamin E analogs as an efficient and selective anti-cancer treatment. Clin. Cancer Res. (submitted)). […]
pIC50: −log10 of the molar value.
Reported pIC50 is given for each of the following compounds.

compound	pIC50
Cc1c(C)c2c(c(C)c1OC(=O)CCC(=O)O)CC[C@@](C)(CCC[C@H](C)CCC[C@H](C)CCCC(C)C)O2 [α-TOS, α-tocopheryl succinate, reference compound]	< 4.00
Cc1c(C)c2c(c(C)c1OC(=O)CCC(=O)OCCCC[P+](c1ccccc1)(c1ccccc1)c1ccccc1)CCC(C)(CCCC(C)CCCC(C)CCCC(C)C)O2 (stereo not drawn)	< 4.00
Cc1c(C)c2c(c(C)c1OC(=O)CCC(=O)[O-])CCC(C)(CCCCCCCCCCC[P+](c1ccccc1)(c1ccccc1)c1ccccc1)O2 (stereo not drawn) [MitoVE11S]	4.32

----------
tested on: Jurkat; test: MTT viability assay (IC50); assay type: cell-based, human; conditions: Table VI: Jurkat 0.5 × 10^6 per ml, analogs added as EtOH solution; MTT
pIC50: −log10 of the molar value.
Property: pIC50; scope: individual compounds

compound	inequality_operator	pIC50
Cc1c(C)c2c(c(C)c1OC(=O)CCC(=O)OCCCC[P+](c1ccccc1)(c1ccccc1)c1ccccc1)CCC(C)(CCCC(C)CCCC(C)CCCC(C)C)O2 (stereo not shown)	=	4.68
Cc1c(C)c2c(c(C)c1O)CC[C@@](C)(CCC[C@H](C)CCC[C@H](C)CCCC(C)C)O2 [α-TOH, α-tocopherol, reference compound]	<	4.00
Cc1c(C)c2c(c(C)c1OC(=O)CCC(=O)[O-])CCC(C)(CCCCCCCCCCC[P+](c1ccccc1)(c1ccccc1)c1ccccc1)O2 (stereo not shown) [MitoVE11S]	=	6.32
Cc1c(C)c2c(c(C)c1OC(=O)CCC(=O)O)CC[C@@](C)(CCC[C@H](C)CCC[C@H](C)CCCC(C)C)O2 [α-TOS, α-tocopheryl succinate, reference compound]	=	4.74
